assay_procedure: qHTS assay to identify small molecule agonists of the endoplasmic reticulum stress response signaling pathway - cell viability counter screen (AID 1159517);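 further: HeLa cells carrying an ER stress response element beta-lactamase reporter; nearly all actives have a fitted effect of over 50% in size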
reported_conditions: ESRE-bla HeLa viability, CellTiter-Glo luminescence, 5 h; series mostly up to 61 µM
Results filed as inconclusive are left out. Active and inactive are the calls of the source. The call rests on the fitted dose curve.
readout: activity change, negative = cytotoxicity

Solved cases below.
CN1CCOC(c2ccccc2)c2ccccc2C1 (stereo not drawn): inactive
CO[C@@]1(NC(=O)Cc2cccs2)C(=O)N2C(C(=O)O)=C(COC(N)=O)CS[C@@H]21: inactive
CCO[Si](CC)(OCC)OCC: inactive
OC[C@H]1O[C@@H](O[C@@H]2[C@@H](CO)O[C@](O)(CO)[C@H]2O)[C@H](O)[C@@H](O)[C@H]1O: inactive
CC(C)(CO)C(O)C(=O)NCCCO (stereo not drawn): inactive
COCCc1ccccn1: inactive
CCC(C(=O)OCCN1CCOC(c2ccccc2)C1C)c1ccccc1 (stereo not drawn): inactive
CCCCCCCCCOC(=O)c1ccccc1C(=O)OCCCCCCCCC: inactive
CC(=O)O[Si](C)(OC(C)=O)OC(C)=O: inactive
C=Cc1ccc(C(C)(C)C)cc1: inactive

# return activity change, negative = cytotoxicity for each item in the list
1. O=C=NCC1CCCC(CN=C=O)C1 (stereo not drawn)
2. O=C(CCCl)NCCc1ccccc1
3. CCCCOCCOC(=O)COc1ccc(Cl)cc1Cl

Return:
["inactive", "inactive", "inactive"]

Hey, just so you know, these numbers are from PubChem BioAssay (Tox21).
